# Tested on: Canis familiaris
# Procedure Details: AUC (0 to 8 hrs) in fasted Beagle dog assessed as 8-OH, benzoate ester level at 10 mg/kg dosed through intraduodenal route by LC-MS/MS method
# Format: ADME, organism-based, Canis lupus familiaris, Plasma
# Set-up: time < 8 hr, dose 10 mg/kg, route intraduodenal
# Condition Set: in vivo, other
Observation Type: AUC (µM·h)

Example cases with answers are listed next.
[[record]]
input_smiles = "CCOC(=O)C1=C(S[C@@H]2CN[C@H](C(=O)Nc3cccc(C(=O)OCC)c3)C2)[C@H](C)[C@@H]2[C@@H]([C@@H](C)O)C(=O)N12"
test_system = "Canis familiaris"
observation_type = "AUC"
units_of_measure = "µM·h"
numeric_result = 3.3

[[record]]
input_smiles = "CCOC(=O)C1=C(S[C@H]2C[C@@H](C(=O)Nc3cccc(C(=O)OCC)c3)N(C(=O)OCc3oc(=O)oc3C)C2)[C@H](C)[C@@H]2[C@@H]([C@@H](C)O)C(=O)N12"
test_system = "Canis familiaris"
observation_type = "AUC"
units_of_measure = "µM·h"
numeric_result = 3.1


a = C[C@@H](O)[C@H]1C(=O)N2C(C(=O)OCC(F)(F)F)=C(S[C@@H]3CN[C@H](C(=O)Nc4cccc(C(=O)OCC(F)(F)F)c4)C3)[C@H](C)[C@H]12
b = COC(=O)C1=C(S[C@@H]2CN[C@H](C(=O)Nc3cccc(C(=O)OC)c3)C2)[C@H](C)[C@@H]2[C@@H]([C@@H](C)O)C(=O)N12
c = CCOC(=O)C1=C(S[C@@H]2CN[C@H](C(=O)Nc3cccc(C(=O)OCC)c3)C2)[C@H](C)[C@@H]2[C@@H]([C@@H](C)OC(=O)CC)C(=O)N12
d = CCOC(=O)C1=C(S[C@@H]2CN[C@H](C(=O)Nc3cccc(C(=O)OCC)c3)C2)[C@H](C)[C@@H]2[C@@H]([C@@H](C)OC(=O)[C@@H](N)C(C)C)C(=O)N12
Arrange by AUC, high to low. Sort and list the labels as requested. b, c, d, a

The origin of these recorded values is ChEMBL document CHEMBL3351346.
